Consider the following compounds and their measured RORγt reporter Assay, % inhibition @ 6 μM readings.
# studyTarget: human RORγt LBD (Homo sapiens (Human), UniProt P51449)
# Sequence (P51449 258-518): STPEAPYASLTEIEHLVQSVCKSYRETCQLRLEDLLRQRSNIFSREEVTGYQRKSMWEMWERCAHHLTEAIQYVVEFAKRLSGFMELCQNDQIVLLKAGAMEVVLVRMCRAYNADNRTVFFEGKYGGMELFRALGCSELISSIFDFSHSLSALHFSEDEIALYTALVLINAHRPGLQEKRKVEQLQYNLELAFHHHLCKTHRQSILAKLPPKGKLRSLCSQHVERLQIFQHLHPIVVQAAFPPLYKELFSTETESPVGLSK
# procedureText: RORγt reporter assay (GAL4-RORγt LBD luciferase in HEK293T cells)
# Type: cell-based
# protocolConditions: HEK293T cells, 6 μM
A number alone suffices; assume %.

compound	unitString	observed
Cc1cc(C(O)(c2ccc(C(F)(F)F)nc2)c2cncn2C)cc2c(C#N)c(Cc3ccc(-n4cccn4)cc3)c(C#N)nc12 (single isomer, unassigned) [Example 65C]	%	100

Give the value of RORγt reporter Assay, % inhibition @ 6 μM reported for the following: CON(C)c1nc2ccc(C(O)(c3ccc(C(F)(F)F)nc3)c3cncn3C)cc2c(Cl)c1Cc1ccc(-n2cccn2)cc1 (single isomer, unassigned) [Example 67C]
101

Give the value of RORγt reporter Assay, % inhibition @ 6 μM reported for the following: Cn1cncc1C(O)(c1ccc(Cl)cc1)c1ccc2nc(O)c(Cc3ccc(-n4cccn4)cc3)c(Cl)c2c1 (single isomer, unassigned) [Example 55C]
92

Give the value of RORγt reporter Assay, % inhibition @ 6 μM reported for the following: COc1nc2ccc(C(O)(c3cnnn3C)c3cnc(C)n3C)cc2c(Cl)c1Cc1ccc(C(F)(F)F)cc1 (single isomer, unassigned) [Example 80C]
93

Give the value of RORγt reporter Assay, % inhibition @ 6 μM reported for the following: COc1nc2ccc(C(O)(c3ccc(C(F)(F)F)nc3)c3cncn3C)cc2c(Cl)c1Cc1cc2ccccc2s1 (single isomer, unassigned) [Example 37C]
102

Give the value of RORγt reporter Assay, % inhibition @ 6 μM reported for the following: COc1nc2ccc(C(O)(c3ccc(Cl)cc3)c3cncn3C)cc2c(Cl)c1Cc1cc2ccccc2s1 (single isomer, unassigned) [Example 36C]
101

Give the value of RORγt reporter Assay, % inhibition @ 6 μM reported for the following: COc1nc2ccc(C(N)(c3ccc(C)nc3C)c3cnnn3C)cc2c(Cl)c1Cc1ccc(C(F)(F)F)cc1 (single isomer, unassigned) [Example 87C]
99

Give the value of RORγt reporter Assay, % inhibition @ 6 μM reported for the following: COc1nc2ccc(C(O)(c3ccc(C#N)cc3)c3cncn3C)cc2c(C#N)c1Cc1ccc(-n2cccn2)cc1 (single isomer, unassigned) [Example 76C]
101

Give the value of RORγt reporter Assay, % inhibition @ 6 μM reported for the following: COc1nc2c(C)cc(C(O)(c3ccc(C(F)(F)F)nc3)c3cncn3C)cc2c(Cl)c1Cc1ccc(-n2cccn2)cc1 (single isomer, unassigned) [Example 29C]
97

Give the value of RORγt reporter Assay, % inhibition @ 6 μM reported for the following: Cc1cc(C(O)(c2ccc(Cl)cc2)c2cncn2C)cc2c(Cl)c(Cc3ccc(-n4cccn4)cc3)c(Cl)nc12 (stereo not shown) [Example 27]
97

Give the value of RORγt reporter Assay, % inhibition @ 6 μM reported for the following: COc1nc2ccc(C(O)(c3ccc(C)nc3C)c3cnnn3C)cc2c(C#N)c1Cc1ccc(C(F)(F)F)cc1 (single isomer, unassigned) [Example 78C]
99

Give the value of RORγt reporter Assay, % inhibition @ 6 μM reported for the following: Cn1cncc1C(O)(c1ccc(Cl)cc1)c1ccc2nc(C#N)c(Cc3ccc(-n4cccn4)cc3)c(C#N)c2c1 (single isomer, unassigned) [Example 71C]
103

Give the value of RORγt reporter Assay, % inhibition @ 6 μM reported for the following: COc1nc2ccc(C(O)(c3ccc(C(F)(F)F)nc3)c3cncn3C)cc2c(Cl)c1Cc1ccc(C(F)(F)F)nc1 (single isomer, unassigned) [Example 94C]
95
